FYI, the data here is from ChEMBL document CHEMBL1130152.

// UniProt P33534 pKi records
Sequence (P33534 whole entry): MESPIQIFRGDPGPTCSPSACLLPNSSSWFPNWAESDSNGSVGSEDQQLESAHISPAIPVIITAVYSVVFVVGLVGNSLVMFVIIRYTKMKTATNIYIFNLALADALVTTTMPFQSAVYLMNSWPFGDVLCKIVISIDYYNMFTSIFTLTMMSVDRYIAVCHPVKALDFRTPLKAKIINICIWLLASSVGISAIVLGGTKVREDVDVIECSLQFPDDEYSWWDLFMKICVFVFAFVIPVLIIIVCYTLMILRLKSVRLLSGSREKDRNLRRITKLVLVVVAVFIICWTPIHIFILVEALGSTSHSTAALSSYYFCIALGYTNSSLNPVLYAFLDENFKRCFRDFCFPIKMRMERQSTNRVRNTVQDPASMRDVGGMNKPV
pKi: −log10 of the molar value.

Below are worked cases with known answers.
CN1CCC23c4c5ccc(O)c4O[C@H]2C(=O)[C@]2(CCc4ccccc4C2)C[C@H]3C1C5 (some centres undefined)    < 6.00
CN1CCC23c4c5ccc(O)c4O[C@H]2C(=O)[C@]2(CCc4ccccc4C2)C[C@@]3(O)C1C5 (some centres undefined)    < 5.52
CN1CC[C@]23c4c5ccc(O)c4O[C@H]2C(=O)C2(Cc4ccccc4C2)C[C@@]3(O)[C@H]1C5    < 5.52

As a next step, examine the compound that follows.
Missing value: pKi, UniProt P33534, entry O=C1[C@@H]2Oc3c(O)ccc4c3C23CCN(CC2CC2)C(C4)[C@]3(O)C[C@]12CCc1ccccc1C2 (some centres undefined) . Fill in?
< 6.00
